Test system: RXRa homodimer (NR concentration 180 nM)
Assay: PBM binding z-score (relative to random genomic background probes); higher = stronger binding; sequences stand for … in GC…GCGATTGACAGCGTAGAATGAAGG

Sequence chain | PBM binding z-score
CCGAGTAGGTTGCGAGGGGGCATTCAGTGCGAAT | 1.27
CTATGTAGGTTAAGGGGGTCATGCAGTTTGAAAG | 6.12
CAAACTAGGTCAAAGGTCAACGTCGAGCCAACCA | 10.3
CTATGTAGGTTAAGGGTGTCATTCAGTTTGAAAG | 1.35
CGAACTAGGTCATAGGACAGTGAAAGGCGACGTA | 3.11
CCGAGTAGCTTACGAGGGGGCATTCAGTGCGAAT | 0.627
CCTACTGGGCCAAAGGTCTTTGATTCCAATGCTC | 0.321
CCGAGTATGTTACGAGGGGGCATTCAGTGCGAAT | 1.31
GCTGCTAGGTAAGGTTGGTCAGCTAACGGGTACG | -0.296
TAGCCTAGGTCATTGGGCCAGTATAGTACGCATC | 2.73
TTACCAAAGTGAAAGGTCGTTGATGCACGCCTTG | 2.65
ATATGTAGGTCAGCTGGGGTCATTCAGACTAGGC | 6.85

----------
Test system: PPARg:RXRa (NR concentration 180 nM, RXRa partner concentration 90 nM)
Assay: PBM binding z-score (relative to random genomic background probes); higher = stronger binding; sequences stand for … in GC…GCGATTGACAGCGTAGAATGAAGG
// reported PBM binding z-score per item
Experimental endpoint: PBM binding z-score

Sequence chain | Experimental endpoint | Readout value
CGTCCAAGGTCATAGGAGGTCATTGAAGACAGAT | PBM binding z-score | 5.65
CTATGTAGGTTAAGTGGGTCATTCAGTTTGAAAG | PBM binding z-score | 5.98
CGTCAAAGTTCAAGTTAACGTAACAGAAAGCAGC | PBM binding z-score | 5.08
TCGAGTAGGTAACGGGGGCATTCAGGGATGAAGA | PBM binding z-score | 4.6
CGTCCAAGGTCAAGGTGAGTGAAAGAGACTCGAA | PBM binding z-score | 5.33
ATCGAAAGGTCGTCGAGGTGAGTATACACCGTTT | PBM binding z-score | 3.07
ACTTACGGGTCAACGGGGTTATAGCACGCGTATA | PBM binding z-score | 6.4
CAACCTAGGTCACGAAAGGTCAAAGTCGAATGAC | PBM binding z-score | 7.93
TCGAGTATGTTACGGGGGCATTCAGGGATGAAGA | PBM binding z-score | 1.94
CCGAGTAGGTTACAAGGGGGCATTCAGTGCGAAT | PBM binding z-score | 2.25
CTATGTAGGTTAAGGGGGTCGTTCAGTTTGAAAG | PBM binding z-score | 7.56
CCTACTGGGCCACGTAAGGTCATTGATTCAGTGA | PBM binding z-score | 3.29
TCTCGGAGGACACGAAAAGTCAGAGCTCGACATC | PBM binding z-score | 0.122
CCTACTGGGCCACGAAAGGTCCTTGATTCAGTGA | PBM binding z-score | 1.24
CCGAGTAGGTTCCGAGGGGGCATTCAGTGCGAAT | PBM binding z-score | -0.00423
CAATGTAGGTTAAGGGGGTCATTCAGTTTGAAAG | PBM binding z-score | 8.91
ATCGAAAGGTCGAAGGTCAGTATACCCACCCGAA | PBM binding z-score | 6.96
ATATGTAGGTTACATGCGGGTCATTCAGGCTATG | PBM binding z-score | 5.9
ATACCAAGGTCATCGTGAGGTCGTTGATACTAAC | PBM binding z-score | 6.03
CGAACTAGGTCAAACGACAGTGAAAGGCGACGTA | PBM binding z-score | 8.27
CCTACTGGGCCATTAAGAGGTCATTGATCATATG | PBM binding z-score | 2.19
AATACAGGGTCACTAGGCCAGAGTGGGTACGAAT | PBM binding z-score | 8.11
GATACAGGGTGAAGGCCAGAGTACGCGTATTGAT | PBM binding z-score | 1.41
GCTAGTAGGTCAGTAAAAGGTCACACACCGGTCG | PBM binding z-score | 7.3
ATGTGTAGGTTACATCCGGGTCATTCAGGCTATG | PBM binding z-score | 2.44
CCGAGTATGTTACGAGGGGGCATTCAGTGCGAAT | PBM binding z-score | 0.244

----------
// reported PBM binding z-score per item
Tested on: THRa:RXRa (NR concentration 90 nM, RXRa partner concentration 90 nM)
Experiment: PBM binding z-score (relative to random genomic background probes); higher = stronger binding; sequences stand for … in GC…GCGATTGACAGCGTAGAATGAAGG

Sequence chain | PBM binding z-score
TCTCGGAGGACACGAAAGGTCAGAACTCGACATC | 3.46
TAGCCTAGGTCAGATCGGGCGAGTATACGCTATA | 3.15
TTGAGTAGGTTACGGGGGCATTCAGGGATGAAGA | 3.83
ACTAGTTGGTCACCTGAGGTCACACACAATTCGG | 5.34
CCTAGTTGGTCAGGAGGTCACATACCGGATATGA | 3.32
CCGAGTAGGTTACGAGGGGGCATTAAGTGCGAAT | 3.52
TCGAGTAGGTTACGGGGGCAGTCAGGGATGAAGA | 2.81
CCGAGTAGGATACGAGGGGGCATTCAGTGCGAAT | 1.97
CAAACTAGGTCACGAAAGGTCAAATTCGAATGAC | 5.14
CGAACTAGATCAAAGGACAGTGAAAGGCGACGTA | 0.0238
CAAACTAGGTCAAAGGTCAAAGACGAGCCAACCA | 4.79
CCTACTGTGCCATTCAGAGGTCATTGATCATATG | 3.38
TAGCCTAGGTCAAGCGGGCCAGTATAGTGTCGGC | 2.9
CCTACTGGGCCATTCAGAGGTCACTGATCATATG | 3.48
TTTCCAAGGTGAAAGGTCGTTGATGCACGCCTTG | 3.76
CCGAGTAGGTTACGATGGGGCATTCAGTGCGAAT | 1.08
CCGAGTAGGTAACGAGGGGGCATTCAGTGCGAAT | 2.73
CGAACTAAGTCAAAGGACAGTGAAAGGCGACGTA | 0.219
CCTACTGGGCCAAGGTCATTGACCAGTCAAAGCA | 3.67
AATACAGGGTCACTTGGCCAGAGTAGGTACGAAT | 3.37
CGAACTAGGACAAAGGACAGTGAAAGGCGACGTA | 0.519
CCGAGTAGGTTACGAGGGGGCATTCTGTGCGAAT | 3.55
CATACAGGGTCATCTAGGCCAGAGTAGGGACGGC | 3.6
TCGAGTAGGTTACGGGGGCATTCAGGGATGAAGA | 3.81
CGAACTAGTTCACCAGGACAGTGAAGAGGTTGGA | 1.69
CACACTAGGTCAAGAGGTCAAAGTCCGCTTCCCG | 4.5
CGAACTAGGTCAGAGCAGGACAGTGAAGGATGAT | 4.2
CCTAGCAGGCCACGGTCACTCAAGCATTTCGCTT | 0.45
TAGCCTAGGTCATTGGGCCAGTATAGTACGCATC | 2.83
CGAACTAGGTCACCAGGACAGTCAAGAGGTTGGA | 3.46
TGAATGACGTTAAAGATCAGGGAACGTGGCGTCG | -0.478
CCTACTGGGCCAAAGGTCAGTGATTCCAATGCTC | 2.35
TTACGAAGGTGAAAGGTCGTTGATGCACGCCTTG | 2.33
ACTAGTTGTTCAGCTGAGGTCACACACAATTCGG | 4.65
CCGAGTAGGTTACGAGGTGGCATTCAGTGCGAAT | 0.837
AGTCAAAGTTCACTAGGTTACGTAAGATTCAGCT | 2.55
CGTCCAAGGGCAGCAGGTCAGTGAAAGCGACGTG | 1.28
ATAGAAAGGTCGAAGGTGAGTATACCCACCCGAA | 2
CATCCAAGGTCAAAGGTCAGTGAAGAGATGACGG | 4.93
CCTTACAGGTCAAGGTTATAGCACGGGTGGTACG | 3.18
ATACGTAGGTTACATCCGGGTCATTCAGGCTATG | 3.81
CGAACTAGGTCAAAGGGCAGTGAAAGGCGACGTA | 3.11
TGAATGAGGTTTAAGATCAGGGAACGTGGCGTCG | 0.0282
CTATGTAGGTTAAGGGGGTCATTCACTTTGAAAG | 3.53
CTGTGTAGGTTAAGGGGGTCATTCAGTTTGAAAG | 3.89
CCTTACGGGTCACTCCATGTTATAGCATCGGAGT | 2.84
AATTCAGGGTCACTAGGCCAGAGTAGGTACGAAT | 4
CCGAGTAGGTTACGAGGGGGCATTCATTGCGAAT | 3.7
CTTAGTTGGTCAGGAGGTCACACACCGGATATGA | 3.67
TCGAGTAGGTTACGGGGGCATTCCGGGATGAAGA | 3.7
CGCACTAGGTCATTGACAGGACAGTGAATAGTAA | 2.91
